Values from the supplement of paper PMC11061612

Test system: OC-314 (Ovarian Carcinoma)
measurement.notes: combination Emax (second highest fraction inhibited in the dose matrix, 72 h); higher = more inhibition; extreme values may be limits of the assay
Entries and their combination Emax

[[record]]
compound = "Cc1cc2ncnn2cc1Nc1ncc2c(n1)n(C1CCOCC1)c(=O)n2C [AZD7648] + O=C(c1cc(Cc2n[nH]c(=O)c3ccccc23)ccc1F)N1CCN(C(=O)C2CC2)CC1 [Olaparib] (first compound max 10 µM, 7x7, partner max 10 µM)"
result = 0.24

[[record]]
compound = "C[C@@H]1COCCN1c1cc(C2([S@](C)(=N)=O)CC2)nc(-c2ccnc3[nH]ccc23)n1 [AZD6738] + Nc1ccn([C@@H]2O[C@H](CO)[C@@H](O)C2(F)F)c(=O)n1 [Gemcitabine] (first compound max 10 µM, 7x7, partner max 0.3 µM)"
result = 0.993

[[record]]
compound = "CN(C)CCCOc1ccc(-c2ccc3ncc4c(c3c2)n(C2CCOCC2)c(=O)n4C)cn1 [AZD0156] + C[C@@H]1COCCN1C2=NC(=NC(=C2)C3(CC3)[S@](=N)(=O)C)C4=C5C=CNC5=NC=C4 [AZD6738] (first compound max 1 µM, 7x7, partner max 10 µM)"
result = 0.869


Read the next record carefully.
**Query** Notebook entry, OC-314 (Ovarian Carcinoma) assay: combination Emax of CC(=O)Nc1cccc(-n2c(=O)n(C3CC3)c(=O)c3c(Nc4ccc(I)cc4F)n(C)c(=O)c(C)c32)c1 [Trametinib] + Cc1nc(-c2cn3c(n2)-c2ccc(-c4cnn(C(C)(C)C(N)=O)c4)cc2OCC3)n(C(C)C)n1 [Taselisib] (first compound max 1 µM, 7x7, partner max 10 µM) = ?
**Result** 0.707
